- System Name: the molecule itself
- Experimental Details: native-gel electrophoresis, self-association in aqueous solution

{"columns": ["Protein", "binding result"],
 "data": [
  ["flagellin mutant (V291W) of V. vulnificus flagellin FlaB (ligand, Recombinant, from pTYB12 intein fusion in E. coli ER2566) MAVNVNTNVAAMTAQRYLNNANSAQQTSMERLSSGFKINSAKDDAAGLQISNRLNVQSRGLDVAVRNANDGISIAQTAEGAMNETTNILQRMRDLSLQSANGSNSKSERVAIQEEVTALNDELNRIAETTSFGGNKLLNGTYGTKAMQIGADNGEAVMLSLKDMRSDNVMMGGVSYQAEEGKDKNWNVAAGDNDLTIALTDSFGNEQEIEINAKAGDDIEELATYINGQTDLVKASVGEGGKLQIFAGNNKVQGEIAFSGSLAGELGLGEGKNVTVDTIDVTTVQGAQESWAIVDAALKYVDSHRAELGAFQNRFNHAISNLDNINENVNASKSRIKDTDFAKETTQLTKTQILSQASSSILAQAKQAPNSALSLLG", "binds"],
  ["flagellin mutant (R93A) of V. vulnificus flagellin FlaB (ligand, Recombinant, from pTYB12 intein fusion in E. coli ER2566) MAVNVNTNVAAMTAQRYLNNANSAQQTSMERLSSGFKINSAKDDAAGLQISNRLNVQSRGLDVAVRNANDGISIAQTAEGAMNETTNILQRMADLSLQSANGSNSKSERVAIQEEVTALNDELNRIAETTSFGGNKLLNGTYGTKAMQIGADNGEAVMLSLKDMRSDNVMMGGVSYQAEEGKDKNWNVAAGDNDLTIALTDSFGNEQEIEINAKAGDDIEELATYINGQTDLVKASVGEGGKLQIFAGNNKVQGEIAFSGSLAGELGLGEGKNVTVDTIDVTTVQGAQESVAIVDAALKYVDSHRAELGAFQNRFNHAISNLDNINENVNASKSRIKDTDFAKETTQLTKTQILSQASSSILAQAKQAPNSALSLLG", "binds"],
  ["flagellin mutant (E108A) of V. vulnificus flagellin FlaB (ligand, Recombinant, from pTYB12 intein fusion in E. coli ER2566) MAVNVNTNVAAMTAQRYLNNANSAQQTSMERLSSGFKINSAKDDAAGLQISNRLNVQSRGLDVAVRNANDGISIAQTAEGAMNETTNILQRMRDLSLQSANGSNSKSARVAIQEEVTALNDELNRIAETTSFGGNKLLNGTYGTKAMQIGADNGEAVMLSLKDMRSDNVMMGGVSYQAEEGKDKNWNVAAGDNDLTIALTDSFGNEQEIEINAKAGDDIEELATYINGQTDLVKASVGEGGKLQIFAGNNKVQGEIAFSGSLAGELGLGEGKNVTVDTIDVTTVQGAQESVAIVDAALKYVDSHRAELGAFQNRFNHAISNLDNINENVNASKSRIKDTDFAKETTQLTKTQILSQASSSILAQAKQAPNSALSLLG", "binds"],
  ["flagellin mutant (N153W) of V. vulnificus flagellin FlaB (ligand, Recombinant, from pTYB12 intein fusion in E. coli ER2566) MAVNVNTNVAAMTAQRYLNNANSAQQTSMERLSSGFKINSAKDDAAGLQISNRLNVQSRGLDVAVRNANDGISIAQTAEGAMNETTNILQRMRDLSLQSANGSNSKSERVAIQEEVTALNDELNRIAETTSFGGNKLLNGTYGTKAMQIGADWGEAVMLSLKDMRSDNVMMGGVSYQAEEGKDKNWNVAAGDNDLTIALTDSFGNEQEIEINAKAGDDIEELATYINGQTDLVKASVGEGGKLQIFAGNNKVQGEIAFSGSLAGELGLGEGKNVTVDTIDVTTVQGAQESVAIVDAALKYVDSHRAELGAFQNRFNHAISNLDNINENVNASKSRIKDTDFAKETTQLTKTQILSQASSSILAQAKQAPNSALSLLG", "binds"]
]}
